Origin of the recorded values: ChEMBL document CHEMBL1156737

Please respond with reported IC50 for every item in the list.
Molecular target: Glycogen phosphorylase, muscle form (Oryctolagus cuniculus)
Sequence (P00489 whole entry): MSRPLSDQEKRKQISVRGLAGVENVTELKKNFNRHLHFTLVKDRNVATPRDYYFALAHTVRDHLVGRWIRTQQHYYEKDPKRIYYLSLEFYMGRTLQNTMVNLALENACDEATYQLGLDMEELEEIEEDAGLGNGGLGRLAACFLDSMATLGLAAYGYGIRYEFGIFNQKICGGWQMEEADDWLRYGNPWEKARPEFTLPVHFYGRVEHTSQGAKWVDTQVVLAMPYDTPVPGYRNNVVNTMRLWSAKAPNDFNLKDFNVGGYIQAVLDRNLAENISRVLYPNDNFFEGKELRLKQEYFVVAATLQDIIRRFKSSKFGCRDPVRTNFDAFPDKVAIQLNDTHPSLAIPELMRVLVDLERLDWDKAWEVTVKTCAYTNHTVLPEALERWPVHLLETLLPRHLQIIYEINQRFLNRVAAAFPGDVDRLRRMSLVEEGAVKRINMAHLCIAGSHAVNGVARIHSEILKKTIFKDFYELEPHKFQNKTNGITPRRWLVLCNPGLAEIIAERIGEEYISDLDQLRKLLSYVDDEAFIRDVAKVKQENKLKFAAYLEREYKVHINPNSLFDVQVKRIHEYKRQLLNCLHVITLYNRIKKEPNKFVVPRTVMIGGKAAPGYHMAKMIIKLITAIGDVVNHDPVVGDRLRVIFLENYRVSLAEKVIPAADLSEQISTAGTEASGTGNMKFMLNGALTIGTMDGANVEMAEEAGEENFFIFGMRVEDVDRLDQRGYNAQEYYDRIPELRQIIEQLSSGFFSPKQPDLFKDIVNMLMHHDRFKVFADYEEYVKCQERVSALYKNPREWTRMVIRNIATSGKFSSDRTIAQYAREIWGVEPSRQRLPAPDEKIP
Assay: Inhibition of rabbit muscle glycogen phosphorylase A assessed as release of phosphate from glucose-1-phosphate after 25 mins
Conditions: read-out: IC50
Give bare numbers, in µM.

Take a look at these entries with their results.
| Mol smiles | Measured target | Unit annotation | IC50 |
| --- | --- | --- | --- |
| C=C(C)[C@@H]1CC[C@]2(C(=O)NCCCN)CC[C@]3(C)[C@H](CC[C@@H]4[C@@]5(C)CC[C@H](OC(C)=O)[C@@](C)(COC(C)=O)[C@@H]5CC[C@]43C)[C@@H]12 | Glycogen phosphorylase, muscle form (Oryctolagus cuniculus) | µM | 15.2 |
| C=C(C)[C@@H]1CC[C@]2(C(=O)NCC(=O)N[C@@H](Cc3ccccc3)C(=O)O)CC[C@]3(C)[C@H](CC[C@@H]4[C@@]5(C)CC[C@H](O)[C@@](C)(CO)[C@@H]5CC[C@]43C)[C@@H]12 | Glycogen phosphorylase, muscle form (Oryctolagus cuniculus) | µM | 129 |

For the next question, use this molecule.
[Q] // lookup IC50 for C=C(C)[C@@H]1CC[C@]2(C(=O)OCCCCCC)CC[C@]3(C)[C@H](CC[C@@H]4[C@@]5(C)CC[C@H](O)[C@@](C)(CO)[C@@H]5CC[C@]43C)[C@@H]12
[A] 69.1

---

Target: Glycogen phosphorylase, muscle form (Oryctolagus cuniculus)
Sequence (P00489 whole entry): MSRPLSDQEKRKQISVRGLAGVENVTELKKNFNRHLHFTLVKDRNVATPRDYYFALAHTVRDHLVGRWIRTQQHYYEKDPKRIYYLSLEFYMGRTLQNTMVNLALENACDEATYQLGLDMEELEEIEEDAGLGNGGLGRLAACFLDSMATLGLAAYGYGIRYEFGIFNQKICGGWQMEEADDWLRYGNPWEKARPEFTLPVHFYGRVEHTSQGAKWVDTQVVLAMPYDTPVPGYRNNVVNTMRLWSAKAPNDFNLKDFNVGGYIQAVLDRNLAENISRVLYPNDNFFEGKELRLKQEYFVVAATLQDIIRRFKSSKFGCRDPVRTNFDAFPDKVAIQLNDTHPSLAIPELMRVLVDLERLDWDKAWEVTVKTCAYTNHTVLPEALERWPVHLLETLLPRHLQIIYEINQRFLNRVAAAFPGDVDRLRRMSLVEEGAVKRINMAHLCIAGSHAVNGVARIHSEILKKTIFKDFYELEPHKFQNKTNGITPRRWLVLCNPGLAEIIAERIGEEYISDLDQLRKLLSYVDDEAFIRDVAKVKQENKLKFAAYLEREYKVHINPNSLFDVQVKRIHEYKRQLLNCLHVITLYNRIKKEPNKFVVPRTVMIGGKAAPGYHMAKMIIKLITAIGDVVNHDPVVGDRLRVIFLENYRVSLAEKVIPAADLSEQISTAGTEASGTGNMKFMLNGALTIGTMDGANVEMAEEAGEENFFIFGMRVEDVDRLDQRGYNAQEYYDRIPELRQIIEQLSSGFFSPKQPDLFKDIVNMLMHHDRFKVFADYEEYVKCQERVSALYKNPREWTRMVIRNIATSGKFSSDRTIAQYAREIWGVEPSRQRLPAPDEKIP
Test: Inhibition of rabbit muscle glycogen phosphorylase A assessed as release of phosphate from glucose-1-phosphate after 25 mins
Conditions: read-out: IC50
Hi there, I'd appreciate the recorded pIC50 for every entry that follows.
Answers are plain numbers, as −log10 of the molar value.

| Compound | Measured target | pIC50 |
| --- | --- | --- |
| C=C(C)[C@@H]1CC[C@]2(C(=O)OC3CCCCC3)CC[C@]3(C)[C@H](CC[C@@H]4[C@@]5(C)CC[C@H](O)[C@@](C)(CO)[C@@H]5CC[C@]43C)[C@@H]12 | Glycogen phosphorylase, muscle form (Oryctolagus cuniculus) | 4.30 |
| C=C(C)[C@@H]1CC[C@]2(COC(=O)C(=O)OCC#CCO)CC[C@]3(C)[C@@H](CC[C@@H]4[C@@]5(C)CC[C@H](OC(=O)C(=O)OCC#CCO)[C@@](C)(COC(=O)C(=O)OCC#CCO)[C@@H]5CC[C@]43C)C12 (some centres undefined) | Glycogen phosphorylase, muscle form (Oryctolagus cuniculus) | 4.72 |
| C=C(C)[C@@H]1CC[C@]2(C(=O)NCCCCCCN(CC)CC)CC[C@]3(C)[C@H](CC[C@@H]4[C@@]5(C)CC[C@H](OC(C)=O)[C@@](C)(COC(C)=O)[C@@H]5CC[C@]43C)[C@@H]12 | Glycogen phosphorylase, muscle form (Oryctolagus cuniculus) | 4.25 |

Next item in the queue.
[Q] Please give the measured pIC50 for this compound: C=C(C)[C@@H]1CC[C@]2(C(=O)NCCCCCCN)CC[C@]3(C)[C@H](CC[C@@H]4[C@@]5(C)CC[C@H](O)[C@@](C)(CO)[C@@H]5CC[C@]43C)[C@@H]12
[A] 4.99
